- Assayed System: Luciferin 4-monooxygenase (Photinus pyralis)
- Protocol Text: firefly luciferase enzyme inhibitors, primary screen, biochemical, luminescence, purified enzyme, 2006 set (AID 1141);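 also: cell-free assay with purified firefly luciferase at 100 ng per well in PBS; test concentration not given here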
- Test Parameters: SteadyGlo luminescence, 30 min, higher = more signal, called active from +8 up or from −8 down
Attribute Measured: z-score
Lab note: jot the number down without any unit.

Reported z-score for `NCCCCCCNC(=O)[C@@H]1C[C@@H]2C(=O)N[C@@H](Cc3ccccc3)C(=O)N2[C@@H]1c1ccc(O)cc1` : what is it?
-1.15

Recorded z-score for `CN(C)CCCC[C@@H]1NC(=O)[C@@H]2C[C@H](C(=O)NCCCCCNC(=O)CS)[C@H](c3cccc(OCCO)c3)N2C1=O` , please?
-0.673

What value of z-score has been recorded for this entry: `Cc1ccc(S[C@]2(C(=O)NCCN3CCOCC3)CC(=O)N(Cc3cc(C(F)(F)F)cc(C(F)(F)F)c3)[C@@H]2c2ccc(CO)cc2)cc1`
-0.682

Which z-score is listed for CC1CC/C=C\[C@H]2OC34C=CCN(C(C)C)C(=O)[C@H]3N(C(CO)C(C)C)C(=O)[C@@H]4C2C(=O)O1 (some centres not stated) ?
-1.3

So what's the measured z-score for this one? `CCCNC(=O)[C@@]1(Sc2ccc(C)cc2)CC(=O)N(Cc2cc(C(F)(F)F)cc(C(F)(F)F)c2)[C@@H]1c1ccc(CO)cc1I`
-0.839

Look up z-score for this molecule: `CC(C)[Si](C#C[Si](C(C)C)(C(C)C)C(C)C)(O[C@H](C)c1cn([C@H](C)c2ccccc2)nn1)C(C)C`
-1.4

Report z-score for C[C@@H](OCc1ccccc1)C1NC(=O)[C@@]23C(=O)N[C@@H](Cc4ccccc4)C2[C@H](C)[C@@]2(C)O[C@H]2C3/C=C/C/C=C\CNC(=O)[C@@H]2CCCN2C1=O (some centres not stated) please.
-1.45

Data provenance: PubChem BioAssay
